Molecular target: CDK2/Cyclin E1 (Homo sapiens (Human), UniProt P24941)
Assay: CDK2/Cyclin E1 HTRF enzyme activity assay (Example A)
Conditions: 1 mM ATP
IC50 overview

Task: Report IC50 for `Cc1nc(-c2nc(NC3CCN(S(C)(=O)=O)CC3)ncc2C(F)(F)F)cn1-c1ccc(C2CN(CC3(O)CC3)C2)cc1F` please.
Output: ≤ 50 nM

Task: Report IC50 for `Cn1cncc1-c1ccc(-n2cnc(-c3nc(NC4CCN(S(C)(=O)=O)CC4)ncc3C(F)(F)F)c2)c(Cl)c1` please.
Output: ≤ 50 nM

Task: Report IC50 for `Cc1nc(-c2nc(NC3CCN(S(C)(=O)=O)CC3)ncc2C(F)(F)F)cn1-c1ccc(N2CCN(C)C(=O)C2)cc1F` please.
Output: ≤ 50 nM

Task: Report IC50 for `CS(=O)(=O)N1CCC(Nc2ncc(C(F)(F)F)c(-c3cn(-c4cc(F)ccc4C#N)cn3)n2)CC1` please.
Output: ≤ 50 nM

Task: Report IC50 for `CS(=O)(=O)N1CCC(Nc2ncc(C(F)(F)F)c(-c3cn(-c4cccc(CN5CC(C#N)C5)c4C(F)(F)F)cn3)n2)CC1` please.
Output: ≤ 50 nM

Task: Report IC50 for `CS(=O)(=O)N1CC[C@@H](Nc2ncc(C(F)(F)F)c(-c3cn(-c4c(F)cc(CN5CCC5)cc4Cl)cn3)n2)[C@H](F)C1` please.
Output: ≤ 50 nM

Task: Report IC50 for CS(=O)(=O)N1CCC(Nc2ncc(C(F)(F)F)c(-c3cn(C(CC#N)C4CC4)cn3)n2)CC1 (stereo not shown) please.
Output: ≤ 50 nM
